Tested on: U251 (Low Grade Glioma);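 note: after 72 h of two-drug dosing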
Test: Bliss excess, mean over the matrix (fraction); higher = more synergy

- compound: "Cc1cc2ncnn2cc1Nc1ncc2c(n1)n(C1CCOCC1)c(=O)n2C [AZD7648] + CN(C)CCCOc1ccc(-c2ccc3ncc4c(c3c2)n(C2CCOCC2)c(=O)n4C)cn1 [AZD0156] (first compound max 10 µM, 7x7, partner max 1 µM)"
  target_or_system: "U251 (Low Grade Glioma)"
  Bliss excess: 0.0214
- compound: "CN(CCO)CC[C@H](CSc1ccccc1)Nc1ccc(S(=O)(=O)NC(=O)c2ccc(N3CCC([C@@H](O)c4ccccc4-c4ccc(Cl)cc4)CC3)cc2)cc1S(=O)(=O)C(F)(F)F [AZD4320] + Cn1cnc2c(F)c(Nc3ccc(Br)cc3Cl)c(C(=O)NOCCO)cc21 [Selumetinib] (first compound max 1 µM, 7x7, partner max 3 µM)"
  target_or_system: "U251 (Low Grade Glioma)"
  Bliss excess: -0.0087
- compound: "CC1(C)CCC(CN2CCN(c3ccc(C(=O)NS(=O)(=O)c4ccc(NCC5CCOCC5)c([N+](=O)[O-])c4)c(Oc4cnc5[nH]ccc5c4)c3)CC2)=C(c2ccc(Cl)cc2)C1 [Venetoclax] + CCN(CCO)CCCOc1ccc2c(Nc3cc(CC(=O)Nc4cccc(F)c4)[nH]n3)ncnc2c1 [AZD2811] (first compound max 1 µM, 7x7, partner max 1 µM)"
  target_or_system: "U251 (Low Grade Glioma)"
  Bliss excess: -0.0104

###

Tested on: EVSA-T (Breast Carcinoma)
Test: combination Emax (second highest fraction inhibited in the dose matrix, 72 h); higher = more inhibition; extreme values may be limits of the assay
measure: combination Emax

- compound: "CC1(C)CCC(CN2CCN(c3ccc(C(=O)NS(=O)(=O)c4ccc(NCC5CCOCC5)c([N+](=O)[O-])c4)c(Oc4cnc5[nH]ccc5c4)c3)CC2)=C(c2ccc(Cl)cc2)C1 [Venetoclax] + CCN(CCO)CCCOc1ccc2c(Nc3cc(CC(=O)Nc4cccc(F)c4)[nH]n3)ncnc2c1 [AZD2811] (first compound max 1 µM, 7x7, partner max 1 µM)"
  measure: "combination Emax"
  reported_result: 0.427
- compound: "CC1(C)CCC(CN2CCN(c3ccc(C(=O)NS(=O)(=O)c4ccc(NCC5CCOCC5)c([N+](=O)[O-])c4)c(Oc4cnc5[nH]ccc5c4)c3)CC2)=C(c2ccc(Cl)cc2)C1 [Venetoclax] + Cc1cc2ncnn2cc1Nc1ncc2c(n1)n(C1CCOCC1)c(=O)n2C [AZD7648] (first compound max 1 µM, 7x7, partner max 10 µM)"
  measure: "combination Emax"
  reported_result: 0.305
- compound: "CN(CCO)CC[C@H](CSc1ccccc1)Nc1ccc(S(=O)(=O)NC(=O)c2ccc(N3CCC([C@@H](O)c4ccccc4-c4ccc(Cl)cc4)CC3)cc2)cc1S(=O)(=O)C(F)(F)F [AZD4320] + Cn1cnc2c(F)c(Nc3ccc(Br)cc3Cl)c(C(=O)NOCCO)cc21 [Selumetinib] (first compound max 1 µM, 7x7, partner max 3 µM)"
  measure: "combination Emax"
  reported_result: 0.506
- compound: "COc1cc2ncnc(Nc3ccc(F)c(Cl)c3)c2cc1OCCCN1CCOCC1 [Gefitinib] + CC(C)n1c(=O)n(C)c2cnc3cc(F)c(-c4ccc(OCCCN5CCCCC5)nc4)cc3c21 [AZD1390] (first compound max 10 µM, 7x7, partner max 0.3 µM)"
  measure: "combination Emax"
  reported_result: 0.27
- compound: "Cn1cnc2c(F)c(Nc3ccc(Br)cc3Cl)c(C(=O)NOCCO)cc21 [Selumetinib] + C=CCn1c(=O)c2cnc(Nc3ccc(N4CCN(C)CC4)cc3)nc2n1-c1cccc(C(C)(C)O)n1 [AZD1775] (first compound max 10 µM, partner max 1 µM)"
  measure: "combination Emax"
  reported_result: 0.156
- compound: "CCN(CCO)CCCOc1ccc2c(Nc3cc(CC(=O)Nc4cccc(F)c4)[nH]n3)ncnc2c1 [AZD2811] + C=CCn1c(=O)c2cnc(Nc3ccc(N4CCN(C)CC4)cc3)nc2n1-c1cccc(C(C)(C)O)n1 [AZD1775] (first compound max 1 µM, partner max 1 µM)"
  measure: "combination Emax"
  reported_result: 0.257
- compound: "CC1(C)CCC(CN2CCN(c3ccc(C(=O)NS(=O)(=O)c4ccc(NCC5CCOCC5)c([N+](=O)[O-])c4)c(Oc4cnc5[nH]ccc5c4)c3)CC2)=C(c2ccc(Cl)cc2)C1 [Venetoclax] + C=CCn1c(=O)c2cnc(Nc3ccc(N4CCN(C)CC4)cc3)nc2n1-c1cccc(C(C)(C)O)n1 [AZD1775] (first compound max 1 µM, partner max 1 µM)"
  measure: "combination Emax"
  reported_result: 0.329
- compound: "COc1cccc(OCCCN)c1-c1cc(Nc2cnc(C#N)cn2)n[nH]1 [Prexasertib] + CCc1c2c(nc3ccc(O)cc13)-c1cc3c(c(=O)n1C2)COC(=O)[C@]3(O)CC [SN-38] (first compound max 1 µM, 7x7, partner max 0.3 µM)"
  measure: "combination Emax"
  reported_result: 0.986
- compound: "C[C@@H]1COCCN1c1cc(C2([S@](C)(=N)=O)CC2)nc(-c2ccnc3[nH]ccc23)n1 [AZD6738] + O=C(c1cc(Cc2n[nH]c(=O)c3ccccc23)ccc1F)N1CCN(C(=O)C2CC2)CC1 [Olaparib] (first compound max 10 µM, 7x7, partner max 10 µM)"
  measure: "combination Emax"
  reported_result: 0.346

src = the supplement of paper PMC11061612
